System: SK-MEL-28
assayText: Inhibition of cells growth by colorimetric assay (SRB), SK-MEL-28
Type: cell-based
condition: Homo sapiens, SK-MEL-28, 48 h, SRB assay, 48 hours exposure; read-out: MEL-28 GI50
measurementKind: log10(GI50) (log10 of the value in nM)
// do not treat as linear: log10 of GI50, unit nM

CCCCCCCCCCCCCCCC(=O)Oc1cc2c(cc1OC)[C@@]1(CS[C@@H]3c4c(OC(C)=O)c(C)c5c(c4[C@H](COC1=O)N1C3[C@@H]3N[C@@H](Cc4cc(C)c(OC)c(O)c43)[C@@H]1O)OCO5)NCC2 (stereo partly drawn)    1.29
COc1cc2c(cc1OC(=O)OC(C)(C)C)CCN[C@]21CS[C@@H]2c3c(OC(=O)[C@H](C)NC(=O)OC(C)(C)C)c(C)c4c(c3[C@H](COC1=O)N1C2[C@H]2c3c(cc(C)c(OC)c3O)C[C@@H]([C@@H]1O)N2C)OCO4 (stereo partly drawn)    0.52

Which value of log10(GI50) has been reported for COc1cc2c(cc1O)CCN[C@]21CS[C@@H]2c3c(OC(=O)CCCCC4SCC5NC(=O)NC54)c(C)c4c(c3[C@H](COC1=O)N1C2[C@H]2c3c(cc(C)c(OC)c3OC(=O)CCCCC3SCC5NC(=O)NC53)C[C@@H]([C@@H]1O)N2C)OCO4 (stereo partly drawn) in the records? 0.12

Another molecule: COc1cc2c(cc1OC(=O)/C=C/c1ccccc1)CCN[C@]21CS[C@@H]2c3c(OC(C)=O)c(C)c4c(c3[C@H](COC1=O)N1C2[C@@H]2N[C@@H](Cc3cc(C)c(OC)c(O)c32)[C@@H]1O)OCO4 (stereo partly drawn) 0.06

Another molecule: COc1cc2c(cc1OC(=O)OC(C)(C)C)CCN[C@]21CS[C@@H]2c3c(OC(=O)OC(C)(C)C)c(C)c4c(c3[C@H](COC1=O)N1C2[C@H]2c3c(cc(C)c(OC)c3OC(=O)OC(C)(C)C)C[C@@H]([C@@H]1O)N2C)OCO4 (stereo partly drawn) 0.29

Another molecule: C=COC(=O)Oc1c(C)c2c(c3c1[C@H]1SC[C@]4(NCCc5cc(OC(=O)OC(C)(C)C)c(OC)cc54)C(=O)OC[C@@H]3N3C1[C@H]1c4c(cc(C)c(OC)c4O)C[C@@H]([C@@H]3O)N1C)OCO2 (stereo partly drawn) 1.41

Another molecule: COc1cc2c(cc1O)CCN[C@]21CS[C@@H]2c3c(O)c(C)c4c(c3[C@H](COC1=O)N1C2[C@H]2c3c(cc(C)c(OC)c3O)C[C@@H]([C@@H]1O)N2C)OCO4 (stereo partly drawn) 0.99

Another molecule: COc1cc2c(cc1O)CCN[C@]21CS[C@@H]2c3c(OC)c(C)c4c(c3[C@H](COC1=O)N1C2[C@H]2c3c(cc(C)c(OC)c3O)C[C@@H]([C@@H]1O)N2C)OCO4 (stereo partly drawn) -0.39

Another molecule: COc1cc2c(cc1OC(=O)OC(C)(C)C)CCN[C@]21CS[C@@H]2c3c(OC(=O)OC(C)(C)C)c(C)c4c(c3[C@H](COC1=O)N1C2[C@H]2c3c(cc(C)c(OC)c3O)C[C@@H]([C@@H]1O)N2C)OCO4 (stereo partly drawn) 0.34
